// provenance: ChEMBL document CHEMBL3885861

- Species: Rattus norvegicus
- Protocol summary: Open TG-GATES - Regimen: Single
- Assay type: toxicity, organism-based, Sprague-Dawley
- Design: regimen Single, gender Male, age 6 weeks
- Measurement setup: in vivo, po, 0 mg/kg, 24 h, tissue Plasma, route gavage, dose level Control
Short version: GLC at least 200 mg/dL is true (1), less is false (0).

Take a look at these entries with their results.
Molecule	Class label
CN(C)[C@@H]1C(O)=C(C(N)=O)C(=O)[C@@]2(O)C(O)=C3C(=O)c4c(O)cccc4[C@@](C)(O)[C@H]3C[C@@H]12	false (0)
Cc1cccc(Nc2ccccc2C(=O)O)c1C	false (0)
O=[N+]([O-])c1ccc2c(c1)Cc1ccccc1-2	false (0)
CC(CN1c2ccccc2Sc2ccccc21)N(C)C (stereo unspecified)	false (0)
CN1C(C(=O)Nc2ccccn2)=C(O)c2sc(Cl)cc2S1(=O)=O	true (1)

API: the following record is the query input.
Record `Clc1c(Cl)c(Cl)c(Cl)c(Cl)c1Cl` ; criterion: GLC no lower than 200 mg/dL. Met?
false (0)
